- ASSAYED SYSTEM: Alpha-2B adrenergic receptor (Didelphis virginiana, UniProt O77715)
- Sequence (O77715 whole entry): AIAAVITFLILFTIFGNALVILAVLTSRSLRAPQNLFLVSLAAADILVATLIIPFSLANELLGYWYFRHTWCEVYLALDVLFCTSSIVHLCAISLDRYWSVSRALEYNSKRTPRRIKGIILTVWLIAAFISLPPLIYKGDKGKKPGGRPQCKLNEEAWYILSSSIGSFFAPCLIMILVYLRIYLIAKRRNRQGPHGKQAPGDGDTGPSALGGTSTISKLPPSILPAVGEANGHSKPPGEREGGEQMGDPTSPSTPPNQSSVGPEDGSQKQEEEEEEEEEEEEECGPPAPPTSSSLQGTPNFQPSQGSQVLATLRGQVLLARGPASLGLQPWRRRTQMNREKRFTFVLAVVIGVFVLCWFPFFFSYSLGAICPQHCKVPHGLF
pKi: −log10 of the molar value.
true means recorded pKi is 8 or above; false means it is below 8.

{"columns": ["MOLECULE", "ASSAYED SYSTEM", "CLASS NAME"],
 "data": [
  ["Brc1c(NC2=NCCN2)ccc2nccnc12", "Alpha-2B adrenergic receptor (Didelphis virginiana, UniProt O77715)", "false"],
  ["COc1cccc(OC)c1OCCNCC1Oc2ccccc2OC1c1ccccc1 (stereo unspecified)", "Alpha-2B adrenergic receptor (Didelphis virginiana, UniProt O77715)", "true"],
  ["NCC(O)c1ccc(O)c(O)c1 (stereo not drawn) [Noradrenaline,(+)]", "Alpha-2B adrenergic receptor (Didelphis virginiana, UniProt O77715)", "false"],
  ["CNCC(O)c1ccc(O)c(O)c1 (stereo unspecified) [EPINEPHRINE]", "Alpha-2B adrenergic receptor (Didelphis virginiana, UniProt O77715)", "false"]
]}
